Reported normalized growth is given for each of the following compounds.
- assay_summary: chemical genetic growth profiling, strain panel (AID 1159580);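 also: tested at 20 µM; growth read once vehicle control cultures reached saturation at 30 °C; 1 = growth at the plate median or of vehicle wells; lower values mean less growth of the strain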
- conditions_used: S. cerevisiae deletion strains, growth OD, locus YNR049C, strain mso1, active compounds read low
The campaign covered roughly 5,500 compounds. About 2,000 (36%) were called active. Roughly 18% stayed inconclusive and do not appear here. This is one part of the list.
// no unit string in output, number only

Reference set, count: 2
{"mol_smiles": "CS(=O)(=O)Nc1ccc([N+](=O)[O-])cc1Oc1ccccc1", "normalized growth": 0.99}
{"mol_smiles": "CC(=O)Oc1ccc(C(c2ccc(OC(C)=O)cc2)c2ccccn2)cc1", "normalized growth": 1.01}

API: the following record is the query input.
stdin: Consider the compound shown here: CC(C)C[C@@H](CN)CC(=O)O What is its recorded normalized growth?
stdout: 1.01
